The reported numbers originate from patent US20190233906A1.

tested on: S. aureus MW2 ΔXV; experiment: Antimicrobial susceptibility test (VITEK 2 system); type: cell-based, Staphylococcus aureus; conditions: strain MW2 ΔXV; further: key: R: resistant; S: susceptible
property_label: Antimicrobial susceptibility (R/S)

CC(=O)O[C@H]1C[C@@]2(C)[C@@H](C[C@@H](O)[C@H]3[C@@]4(C)CC[C@@H](O)[C@@H](C)[C@@H]4CC[C@@]32C)/C1=C(\CCC=C(C)C)C(=O)O    S
CC1(C)S[C@@H]2[C@H](NC(=O)Cc3ccccc3)C(=O)N2[C@H]1C(=O)O    R
CC(=O)NC[C@H]1CN(c2ccc(N3CCOCC3)c(F)c2)C(=O)O1    S
Cc1onc(-c2ccccc2Cl)c1C(=O)N[C@@H]1C(=O)N2[C@@H]1SC(C)(C)[C@@H]2C(=O)O    R

###

system: S. aureus MW2; format: cell-based, Staphylococcus aureus; conditions: strain MW2
property_label: Antimicrobial susceptibility (R/S)

Worked set:
C[C@@H]1O[C@@H]1P(=O)(O)O    S
O=C(N[C@H](CO)[C@H](O)c1ccc([N+](=O)[O-])cc1)C(Cl)Cl    S
CC(=O)O[C@H]1C[C@@]2(C)[C@@H](C[C@@H](O)[C@H]3[C@@]4(C)CC[C@@H](O)[C@@H](C)[C@@H]4CC[C@@]32C)/C1=C(\CCC=C(C)C)C(=O)O    S
C/C(=C\C(=O)OCCCCCCCCC(=O)O)C[C@@H]1OC[C@H](C[C@@H]2O[C@H]2[C@@H](C)[C@H](C)O)[C@@H](O)[C@H]1O    S
Cc1onc(-c2ccccc2Cl)c1C(=O)N[C@@H]1C(=O)N2[C@@H]1SC(C)(C)[C@@H]2C(=O)O    R
C[C@H]1COc2c(N3CCN(C)CC3)c(F)cc3c(=O)c(C(=O)O)cn1c23    S

Output Antimicrobial susceptibility (R/S) of "CO/N=C(\C(=O)N[C@@H]1C(=O)N2C(C(=O)O)=C(COC(N)=O)CS[C@H]12)c1ccco1" R
